Data credit: patent US20240327407A1

Biological target: UniProt:Q9R1E6
Assay: Mice serum ATX inhibitory activity (IC50 determination)
measuredParameter: pIC50
Reminder that pIC50 means the negative base-10 logarithm of the concentration expressed in mol/L.

Record CC(C)[C@@H](NC(=O)c1cc(C(F)(F)F)ccc1F)C(=O)N1CCC2(CC1)CN(C)CC2c1ccc(F)cc1 (some centres unmarked) . Reported pIC50: 8.15

The compound listed as CCOC(=O)N1CC(c2ccc(F)cc2)C2(CCN(C(=O)[C@H](NC(=O)c3cc(C(F)(F)F)ccc3F)C(C)C)CC2)C1 (some centres unmarked) has a reported pIC50 of 6.82

Summary for this compound, `CCc1nc2c(C)cc(N3CCN(CC(=O)N4CC(O)C4)CC3)cn2c1N(C)c1nc(-c2ccc(F)cc2)c(C#N)s1` : pIC50 is 6.29

The compound identified as CC(C)[C@@H](NC(=O)c1cc(C(F)(F)F)ccc1F)C(=O)N1CCC2(CC1)C(=O)N(CC1CC1)CC2c1ccc(F)cc1 (some centres unmarked) registered its pIC50 at 7.13

Given item `CC(C)[C@@H](NC(=O)c1cc(C(F)(F)F)ccc1F)C(=O)N1CCC2(CC1)CN(C)C[C@H]2c1ccc(F)cc1` , the value recorded as its pIC50 is 8.11
